subject_of_test: SARS-CoV-2 full length Spike protein, wild type, expressed on CHO cells (SARS-CoV-2, UniProt P0DTC2 14-1273)
measurement_label: median fluorescence intensity, fold over isotype control
Returns: string containing the number followed by the unit.

* anti-SARS-CoV-2 antibody 1037 (antibody, V domains shown) VH: QITLKESGPTLVKPTQTLTLTCTFSGFSLSTSGVGVGWIRQPPGKALEWLALIYWDDDKRYSPSLKSRLTITKDTSKNQVVLTMTNMDPVDTATYYCAHHTITRINDYWGQGTLVTVSS VL: QSALTQPASVSGSPGQSITISCTATSSDVGAYNYVSWYQQHPGKAPKLMIYDVSKRPSGVSNRFSGSKSGNTASLTISGLQAEDEADYYCSSYTSSSTVFGGGTKLTVLG | 83 fold over isotype

Entry anti-SARS-CoV-2 antibody 1444 (antibody, V domains shown) VH: QVQLVQSGAEVKKPGASVKVSCKASGYTFTAYYMHWVRQAPGQGLEWMGWINPNSDDTNYAQKFQGRVTMTRDTSISTAYMELSRLRSDDTAVYYCAREEGVFTIGDRYFDLWGRGTLVSVSS VL: QTVVTQEPSFSVSPGGTVTLTCGLSSGSVSTSYYPSWYQQTPGQAPRTLIYNTNTRSSGVPDRFSGSILGNKAALTITGAQADDESDYYCVLYMGSGIWVFGGGTKLTVLG , median fluorescence intensity, fold over isotype control reported as 48.7 fold over isotype
